- Test method notes: Tissue distribution in C57 BL6 mice bearing B16
- Assay type: in vivo, mouse
- Measurement conditions: mouse, kidney, iv, 3 umol/animal; 8 h; read-out: kidney % ID/g
Measured attribute: tissue uptake at 8 h (%ID/g)
The reply should be a number in %ID/g, with the unit left off.

Enquiry: Could you share which tissue uptake at 8 h value was measured for CCN(CC)CCNC(=O)c1ccc(I)cc1 [Derivative A, N-(2-diethylaminoethyl) 4-iodo benzamide] ?
Return: 0.84

* * *

- Test method notes: Tissue distribution in Swiss nu/nu SSCUP mice bearing Beu
- Assay type: in vivo, human
- Measurement conditions: mouse, submaxillary glands, iv, 3 umol/animal; 8 h; read-out: submaxillary glands % ID/g
Measured attribute: tissue uptake at 8 h (%ID/g)
Give just the number in %ID/g; leave the unit off.

Enquiry: Report tissue uptake at 8 h for CCN(CC)CCNC(=O)c1ccc(I)cc1 [Derivative A, N-(2-diethylaminoethyl) 4-iodo benzamide] please.
Return: 0.24

* * *

- Test method notes: Tissue distribution in C57 BL6 mice bearing B16
- Type: in vivo, mouse
- Measurement conditions: mouse, pancreas, iv, 3 umol/animal; 8 h; read-out: pancreas % ID/g
Measured attribute: tissue uptake at 8 h (%ID/g)
Numbers only here, please. The scale is %ID/g.

Enquiry: Name the recorded tissue uptake at 8 h for CCN(CC)CCNC(=O)c1ccc(I)cc1 [Derivative A, N-(2-diethylaminoethyl) 4-iodo benzamide] .
Return: 0.41

* * *

tissue uptake at 4 h for assorted compounds
- Test method notes: Tissue distribution in Swiss nu/nu SSCUP mice bearing Dau
- Type: in vivo, human
- Measurement conditions: mouse, lungs, iv, 3 umol/animal; 4 h; read-out: lungs % ID/g
Hi! Could you send only the number? It should be in %ID/g, unit omitted.

{"Compound": "CCNCCNC(=O)c1ccc(I)cc1 [Derivative B, N-(2-ethylaminoethyl) 4-iodo benzamide]", "tissue uptake at 4 h, %ID/g": 2.63}

Okay, now this compound:
Enquiry: Return reported tissue uptake at 4 h; argument: CCN(CC)CCNC(=O)c1ccc(I)cc1 [Derivative A, N-(2-diethylaminoethyl) 4-iodo benzamide]
Return: 2.84

* * *

Known tissue uptake at 1 h of a selection of compounds
- Test method notes: Tissue distribution in Swiss nu/nu SSCUP mice bearing Dau
- Assay type: in vivo, human
- Measurement conditions: mouse, pancreas, iv, 3 umol/animal; 1 h; read-out: pancreas % ID/g
Return type: number; implicit unit %ID/g.

Enquiry: Entry CCN(CC)CCNC(=O)c1ccc(I)cc1 [Derivative A, N-(2-diethylaminoethyl) 4-iodo benzamide] has what tissue uptake at 1 h?
Return: 4.06

Enquiry: Could you do the same for CCNCCNC(=O)c1ccc(I)cc1 [Derivative B, N-(2-ethylaminoethyl) 4-iodo benzamide] , please?
Return: 2.86

* * *

- Test method notes: Tissue distribution in Swiss nu/nu SSCUP mice bearing Beu
- Type: in vivo, human
- Measurement conditions: mouse, intestine, iv, 3 umol/animal; 24 h; read-out: intestine % ID/g
Measured attribute: tissue uptake at 24 h (%ID/g)
Report the figure in %ID/g without appending any unit label.

Enquiry: I would be grateful if you could share the reported tissue uptake at 24 h for CCN(CC)CCNC(=O)c1ccc(I)cc1 [Derivative A, N-(2-diethylaminoethyl) 4-iodo benzamide] .
Return: 0.03

* * *

Quick reference for tissue uptake at 24 h among some molecules
- Test method notes: Tissue distribution in C57 BL6 mice bearing B16
- Assay type: in vivo, mouse
- Measurement conditions: mouse, lung, iv, 3 umol/animal, 24 h; read-out: lungs % ID/g
Answer with a number only, understood to be in %ID/g.

{"Molecule": "CCN(CC)CCNC(=O)c1ccc(I)cc1 [Derivative A, N-(2-diethylaminoethyl) 4-iodo benzamide]", "Unit symbol": "%ID/g", "tissue uptake at 24 h": 0.05}

Shifting focus to the molecule that follows.
Enquiry: Can you look up the measured tissue uptake at 24 h of CCNCCNC(=O)c1ccc(I)cc1 [Derivative B, N-(2-ethylaminoethyl) 4-iodo benzamide] for me?
Return: 0.05

* * *

- Test method notes: Tissue distribution in Swiss nu/nu SSCUP mice bearing Beu
- Type: in vivo, human
- Measurement conditions: mouse, blood, iv, 3 umol/animal, 4 h; read-out: blood % ID/g
Measured attribute: tissue uptake at 4 h (%ID/g)
Number in %ID/g, nothing else.

Enquiry: # tissue uptake at 4 h lookup, item CCN(CC)CCNC(=O)c1ccc(I)cc1 [Derivative A, N-(2-diethylaminoethyl) 4-iodo benzamide]
Return: 0.32

* * *

- Test method notes: Tissue distribution in C57 BL6 mice bearing B16
- Assay type: in vivo, mouse
- Measurement conditions: mouse, spleen, iv, 3 umol/animal; 6 h; read-out: spleen % ID/g
Measured attribute: tissue uptake at 6 h (%ID/g)
State just the number; it will be interpreted in %ID/g.

Enquiry: Look at this compound and give its reported tissue uptake at 6 h. CCN(CC)CCNC(=O)c1ccc(I)cc1 [Derivative A, N-(2-diethylaminoethyl) 4-iodo benzamide]
Return: 0.56

* * *

- Test method notes: Tissue distribution in C57 BL6 mice bearing B16
- Format: in vivo, mouse
- Measurement conditions: mouse, blood, iv, 3 umol/animal, 24 h; read-out: blood % ID/g
Below, each entry is listed alongside its reported tissue uptake at 24 h.
Give the quantity in %ID/g, number only.

{"Compound": "CCNCCNC(=O)c1ccc(I)cc1 [Derivative B, N-(2-ethylaminoethyl) 4-iodo benzamide]", "tissue uptake at 24 h (%ID/g)": 0.03}

Turning to the following compound.
Enquiry: Bench note: what tissue uptake at 24 h did CCN(CC)CCNC(=O)c1ccc(I)cc1 [Derivative A, N-(2-diethylaminoethyl) 4-iodo benzamide] show?
Return: 0.022

* * *

- Test method notes: Tissue distribution in Swiss nu/nu SSCUP mice bearing Dau
- Assay type: in vivo, human
- Measurement conditions: mouse, tumor, iv, 3 umol/animal, 2 h; read-out: tumor % ID/g
The molecules listed here are annotated with their tissue uptake at 2 h.
A number alone suffices; assume %ID/g.

{"Molecule": "CCN(CC)CCNC(=O)c1ccc(I)cc1 [Derivative A, N-(2-diethylaminoethyl) 4-iodo benzamide]", "Measured number": 1.29}

Next molecule, please.
Enquiry: Tell me the measured tissue uptake at 2 h of CCNCCNC(=O)c1ccc(I)cc1 [Derivative B, N-(2-ethylaminoethyl) 4-iodo benzamide] , please.
Return: 1.27

* * *

Overview of reported tissue uptake at 1 h across a group of compounds:
- Test method notes: Tissue distribution in Swiss nu/nu SSCUP mice bearing Dau
- Format: in vivo, human
- Measurement conditions: mouse, spleen, iv, 3 umol/animal; 1 h; read-out: spleen % ID/g
Respond numerically; units are %ID/g and should not be typed.

{"Compound": "CCN(CC)CCNC(=O)c1ccc(I)cc1 [Derivative A, N-(2-diethylaminoethyl) 4-iodo benzamide]", "Measured attribute": "tissue uptake at 1 h", "Measured number": 3.48}

Enquiry: What value of tissue uptake at 1 h has been recorded for this entry: CCNCCNC(=O)c1ccc(I)cc1 [Derivative B, N-(2-ethylaminoethyl) 4-iodo benzamide]
Return: 2.54

* * *

- Test method notes: Tissue distribution in Swiss nu/nu SSCUP mice bearing Beu
- Type: in vivo, human
- Measurement conditions: mouse, intestine, iv, 3 umol/animal; 12 h; read-out: intestine % ID/g
Measured attribute: tissue uptake at 12 h (%ID/g)
Your answer should be a plain number; it is taken to be in %ID/g.

Enquiry: Entry under review: CCN(CC)CCNC(=O)c1ccc(I)cc1 [Derivative A, N-(2-diethylaminoethyl) 4-iodo benzamide] . Reported tissue uptake at 12 h?
Return: 0.08

* * *

- Test method notes: Tissue distribution in Swiss nu/nu SSCUP mice bearing Dau
- Type: in vivo, human
- Measurement conditions: mouse, kidney, iv, 3 umol/animal, 24 h; read-out: kidney % ID/g
Catalogue of tissue uptake at 24 h readings, one per entry.
Respond numerically; units are %ID/g and should not be typed.

{"Compound": "CCNCCNC(=O)c1ccc(I)cc1 [Derivative B, N-(2-ethylaminoethyl) 4-iodo benzamide]", "tissue uptake at 24 h (%ID/g)": 0.04}

Query compound follows.
Enquiry: Look at this compound and give its reported tissue uptake at 24 h. CCN(CC)CCNC(=O)c1ccc(I)cc1 [Derivative A, N-(2-diethylaminoethyl) 4-iodo benzamide]
Return: 0.03

* * *

# tissue uptake at 24 h values compiled below
- Test method notes: Tissue distribution in Swiss nu/nu SSCUP mice bearing Dau
- Format: in vivo, human
- Measurement conditions: mouse, brain, iv, 3 umol/animal, 24 h; read-out: brain % ID/g
Number only, in %ID/g; omit the unit.

{"Molecule": "CCN(CC)CCNC(=O)c1ccc(I)cc1 [Derivative A, N-(2-diethylaminoethyl) 4-iodo benzamide]", "tissue uptake at 24 h [%ID/g]": 0.002}

With those in mind, consider the next molecule.
Enquiry: Reported tissue uptake at 24 h, molecule CCNCCNC(=O)c1ccc(I)cc1 [Derivative B, N-(2-ethylaminoethyl) 4-iodo benzamide] : ____
Return: 0.002

* * *

- Test method notes: Tissue distribution in Swiss nu/nu SSCUP mice bearing Dau
- Assay type: in vivo, human
- Measurement conditions: mouse, submaxillary glands, iv, 3 umol/animal; 24 h; read-out: submaxillary glands % ID/g
Entries annotated with measured tissue uptake at 24 h
Your answer should be a plain number; it is taken to be in %ID/g.

{"Molecule": "CCN(CC)CCNC(=O)c1ccc(I)cc1 [Derivative A, N-(2-diethylaminoethyl) 4-iodo benzamide]", "Unit symbol": "%ID/g", "Measured number": 0.02}

Enquiry: Entry CCNCCNC(=O)c1ccc(I)cc1 [Derivative B, N-(2-ethylaminoethyl) 4-iodo benzamide] : reported tissue uptake at 24 h = ?
Return: 0.02
